# system-tested: human STING (WT) (Homo sapiens (Human), UniProt Q86WV6, H232R)
# Sequence (Q86WV6 other isoform, or with tags, fused parts or gaps, stated change not applied): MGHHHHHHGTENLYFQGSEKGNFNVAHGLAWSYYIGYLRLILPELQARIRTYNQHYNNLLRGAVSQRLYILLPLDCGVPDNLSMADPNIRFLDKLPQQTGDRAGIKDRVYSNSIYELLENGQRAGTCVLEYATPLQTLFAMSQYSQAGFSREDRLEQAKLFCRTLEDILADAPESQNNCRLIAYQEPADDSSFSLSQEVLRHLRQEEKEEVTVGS
# assay-explanation: Differential scanning fluorimetry (DSF), huSTING (WT)
# Format: binding
# stated-conditions: 2 μM protein, compound 100 μM; Tm with ligand minus Tm of protein alone (1% DMSO); read-out: DSF huSTING (WT) ΔTm (° C.)
// returns FALSE unless ΔTm at 100 µM is strictly below 5 °C, in which case TRUE

COc1c(C(N)=O)ccc2c1nc(-c1c(C(=O)O)ccc(Cl)c1F)n2CCn1c(-c2c(C(=O)O)ccc(Cl)c2F)nc2c(OC)c(C(N)=O)ccc21 [Example 12] = TRUE

stdin: Dear reviewer, please state whether COc1c(C(N)=O)ccc2c1nc(-c1c(F)cc(F)cc1-c1nn[nH]n1)n2CCn1c(-c2c(F)cc(F)cc2-c2nn[nH]n2)nc2c(OC)c(C(N)=O)ccc21 [Example 43] has ΔTm at 100 µM strictly beneath 5 °C.
stdout: FALSE

stdin: I'd appreciate it if you could check whether COc1c(C(N)=O)cc(F)c2c1nc(-c1c(F)cc(F)cc1C(=O)O)n2CCn1c(-c2c(F)cc(F)cc2C(=O)O)nc2c(OC)c(C(N)=O)cc(F)c21 [Example 18] has ΔTm at 100 µM smaller than 5 °C.
stdout: TRUE

stdin: Hello, I'm reviewing records and need to know if ΔTm at 100 µM of COc1c(C(N)=O)ccc2c1nc(-c1c(F)cccc1-c1n[nH]c(=O)o1)n2CCn1c(-c2c(F)cccc2-c2n[nH]c(=O)o2)nc2c(OC)c(C(N)=O)ccc21 [Example 49] is below 5 °C. Could you check?
stdout: FALSE

stdin: Report whether reported ΔTm at 100 µM is lower than 5 °C (strictly) for COc1c(C(N)=O)ccc2c1nc(-c1ccccc1C(=O)O)n2CCn1c(-c2ccccc2C(=O)O)nc2c(OC)c(C(N)=O)ccc21 [Example 4]
stdout: TRUE

stdin: Item COc1c(C(N)=O)ccc2c1nc(-c1ccc(F)cc1C(=O)O)n2CCn1c(-c2ccc(F)cc2C(=O)O)nc2c(OC)c(C(N)=O)ccc21 [Example 27] : ΔTm at 100 µM beneath 5 °C, strictly?
stdout: TRUE

###

# system-tested: human STING (HAQ) (Homo sapiens, UniProt Q86WV6, G230A/H232R/R293Q)
# Sequence (Q86WV6 whole entry G230A/H232R/R293Q, looked up): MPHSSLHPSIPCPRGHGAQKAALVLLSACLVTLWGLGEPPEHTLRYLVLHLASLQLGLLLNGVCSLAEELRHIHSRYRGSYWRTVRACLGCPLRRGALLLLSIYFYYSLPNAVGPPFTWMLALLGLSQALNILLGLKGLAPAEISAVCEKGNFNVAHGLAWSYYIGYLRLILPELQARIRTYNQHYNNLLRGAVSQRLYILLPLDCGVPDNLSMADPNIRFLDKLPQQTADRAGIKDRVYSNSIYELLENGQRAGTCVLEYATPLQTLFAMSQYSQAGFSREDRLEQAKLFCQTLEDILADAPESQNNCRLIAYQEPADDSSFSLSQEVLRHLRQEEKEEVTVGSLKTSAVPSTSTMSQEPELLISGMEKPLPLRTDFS
# assay-explanation: Differential scanning fluorimetry (DSF), huSTING (HAQ)
# Format: binding
# stated-conditions: 2 μM protein, compound 100 μM; Tm with ligand minus Tm of protein alone (1% DMSO); read-out: DSF huSTING (HAQ) ΔTm (° C.)
Rule: ΔTm at 100 µM below 6 °C gives fulfilled, anything at or above gives not fulfilled.

COc1c(C(N)=O)cc(F)c2c1nc(-c1ccc(Cl)cc1C(=O)O)n2CCn1c(-c2ccc(Cl)cc2C(=O)O)nc2c(OC)c(C(N)=O)cc(F)c21 = fulfilled
CCc1ccc(-c2nc3c(OC)c(C(N)=O)ccc3n2CCn2c(-c3ccc(CC)cc3C(=O)O)nc3c(OC)c(C(N)=O)ccc32)c(C(=O)O)c1 = fulfilled
NC(=O)c1ccc2c(c1)nc(-c1ccc(Cl)cc1C(=O)O)n2CCn1c(-c2ccc(Cl)cc2C(=O)O)nc2cc(C(N)=O)ccc21 = fulfilled
COc1c(C(N)=O)ccc2c1nc(-c1c(I)cccc1C(=O)O)n2CCn1c(-c2c(I)cccc2C(=O)O)nc2c(OC)c(C(N)=O)ccc21 (single isomer, unassigned) = not fulfilled
COc1c(C(N)=O)ccc2c1nc(-c1ccc(Cl)cc1-c1nn[nH]n1)n2CCn1c(-c2ccc(Cl)cc2-c2nn[nH]n2)nc2c(OC)c(C(N)=O)ccc21 = not fulfilled
COc1c(C(N)=O)ccc2c1nc(-c1c(F)cc(F)cc1-c1nn[nH]n1)n2CCn1c(-c2c(F)cc(F)cc2-c2nn[nH]n2)nc2c(OC)c(C(N)=O)ccc21 = not fulfilled
COc1c(C(N)=O)ccc2c1nc(-c1c(F)cc(F)cc1C(=O)O)n2CCn1c(-c2c(F)cc(F)cc2C(=O)O)nc2c(OC)c(C(N)=O)ccc21 = not fulfilled
COc1c(C(N)=O)ccc2c1nc(-c1cc(C)ccc1C(=O)O)n2CCn1c(-c2cc(C)ccc2C(=O)O)nc2c(OC)c(C(N)=O)ccc21 = not fulfilled

stdin: Could you please tell me whether ΔTm at 100 µM recorded for `COc1c(C(N)=O)ccc2c1nc(-c1c(F)cccc1C(=O)O)n2CCn1c(-c2c(F)cccc2C(=O)O)nc2c(OC)c(C(N)=O)ccc21` is less than 6 °C?
stdout: not fulfilled

###

Entries and their measured EC50 follow.
# system-tested: human HAQ isoform of STING (THP-1 STING Lucia ISG cells) (Homo sapiens (Human), UniProt Q86WV6, G230A/H232R/R293Q/R71H)
# Sequence (Q86WV6 whole entry R71H/G230A/H232R/R293Q, canonical isoform): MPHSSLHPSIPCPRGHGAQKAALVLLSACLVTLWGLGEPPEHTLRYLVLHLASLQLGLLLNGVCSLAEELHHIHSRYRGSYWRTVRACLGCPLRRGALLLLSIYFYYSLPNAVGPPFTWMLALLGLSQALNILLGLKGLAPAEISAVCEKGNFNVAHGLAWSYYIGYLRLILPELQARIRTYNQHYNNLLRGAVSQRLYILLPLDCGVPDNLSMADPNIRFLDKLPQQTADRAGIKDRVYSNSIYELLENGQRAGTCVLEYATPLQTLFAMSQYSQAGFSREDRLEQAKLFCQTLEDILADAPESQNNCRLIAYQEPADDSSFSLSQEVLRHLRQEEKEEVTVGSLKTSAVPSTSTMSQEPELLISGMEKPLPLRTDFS
# assay-explanation: THP-1 STING Lucia ISG reporter cell line assay
# stated-conditions: 24 h incubation, QUANTI-Luc luminescence
Could you give me the number in µM? Just the number is fine.

Would you please look over these solved cases?
COc1c(C(N)=O)ccc2c1nc(-c1c(F)cc(F)cc1C(=O)O)n2CCn1c(-c2c(F)cc(F)cc2C(=O)O)nc2c(OC)c(C(N)=O)ccc21 [Example 16] = 0.738
COc1c(C(N)=O)ccc2c1nc(-c1ccc(Cl)cc1-c1nn[nH]n1)n2CCn1c(-c2ccc(Cl)cc2-c2nn[nH]n2)nc2c(OC)c(C(N)=O)ccc21 [Example 9] = 0.777
NC(=O)c1ccc2c(c1)nc(-c1ccccc1-c1nn[nH]n1)n2CCn1c(-c2ccccc2-c2nnn[nH]2)nc2cc(C(N)=O)ccc21 [Example 5] = 24.8

stdin: Find the recorded EC50 belonging to COc1c(C(N)=O)ccc2c1nc(-c1ccc(F)cc1C(=O)O)n2CCn1c(-c2ccc(F)cc2C(=O)O)nc2c(OC)c(C(N)=O)ccc21 [Example 27] and report it.
stdout: 11.3

stdin: Entry NC(=O)c1ccc2c(c1)nc(-c1c(Br)cccc1C(=O)O)n2CCn1c(-c2c(Br)cccc2C(=O)O)nc2cc(C(N)=O)ccc21 (single isomer, unassigned) [Example 29.1] has what EC50?
stdout: 18.4

stdin: Consider the molecule shown here: COc1c(C(N)=O)ccc2c1nc(-c1cnccc1C(=O)O)n2CCn1c(-c2cnccc2C(=O)O)nc2c(OC)c(C(N)=O)ccc21 [Example 30] What is its recorded EC50?
stdout: 39.1

stdin: Record request: EC50 value, item COc1c(C(N)=O)ccc2c1nc(-c1ccccc1C(=O)O)n2CCn1c(-c2ccccc2C(=O)O)nc2c(OC)c(C(N)=O)ccc21 [Example 4]
stdout: 15.9

stdin: Name the recorded EC50 for COc1c(C(N)=O)ccc2c1nc(-c1ccccc1-c1nn[nH]n1)n2CCn1c(-c2ccccc2-c2nn[nH]n2)nc2c(OC)c(C(N)=O)ccc21 [Example 6] .
stdout: 0.902

stdin: Need EC50, item COc1c(C(N)=O)ccc2c1nc(-c1c(Cl)cccc1C(=O)O)n2CCn1c(-c2c(Cl)cccc2C(=O)O)nc2c(OC)c(C(N)=O)ccc21 (racemic) [Example 22]
stdout: 1.53

stdin: GET /values?readout=EC50&item= COC(=O)c1c(Br)cccc1-c1nc2c(OC)c(C(N)=O)ccc2n1CCn1c(-c2cccc(Br)c2C(=O)OC)nc2c(OC)c(C(N)=O)ccc21 [Example 21]
stdout: 1.49

###

Recorded EC50 values for a group of molecules are listed next.
# system-tested: human HAQ isoform of STING (THP-1 STING Lucia ISG cells) (Homo sapiens (Human), UniProt Q86WV6, G230A/H232R/R293Q/R71H)
# assay-explanation: THP-1 STING Lucia ISG reporter cell line assay
# Assay type: cell-based
# stated-conditions: 24 h incubation, QUANTI-Luc luminescence
Answer format: numeric, nM implied, no suffix.

COc1c(C(N)=O)ccc2c1nc(-c1c(Cl)cccc1-c1nn[nH]n1)n2CCn1c(-c2c(Cl)cccc2-c2nn[nH]n2)nc2c(OC)c(C(N)=O)ccc21 (single isomer, unassigned) = 2500

Next:
stdin: # get_value(readout='EC50', item= `COc1c(C(N)=O)ccc2c1nc(-c1c(F)cc(Cl)cc1-c1nn[nH]n1)n2CCn1c(-c2c(F)cc(Cl)cc2-c2nn[nH]n2)nc2c(OC)c(C(N)=O)ccc21` )
stdout: 218

###

This section presents compounds with their documented EC50 values.
# system-tested: WT human STING isoform (THP-1-Dual KI-hSTING-R232 cells) (Homo sapiens (Human), UniProt Q86WV6, H232R)
# Sequence (Q86WV6 whole entry H232R, canonical isoform): as the sequence (Q86WV6 whole entry R71H/G230A/H232R/R293Q, canonical isoform) above, with H71R, A230G, Q293R counted along it
# assay-explanation: THP-1-Dual KI-hSTING-R232 reporter cell line assay
# stated-conditions: 24 h incubation, QUANTI-Luc luminescence
Please reply with the bare figure in nM and do not write the unit itself.

Worked cases, EC50 given:
NC(=O)c1ccc2c(c1)nc(-c1c(Br)cccc1C(=O)O)n2CCn1c(-c2c(Br)cccc2C(=O)O)nc2cc(C(N)=O)ccc21 (single isomer, unassigned) [Example 29.1] = 9850
COc1c(C(N)=O)ccc2c1nc(-c1c(F)cccc1C(=O)O)n2CCn1c(-c2c(F)cccc2C(=O)O)nc2c(OC)c(C(N)=O)ccc21 = 1390

stdin: Query: EC50; subject: `COc1c(C(N)=O)ccc2c1nc(-c1cc(Cl)ccc1-c1nn[nH]n1)n2CCn1c(-c2cc(Cl)ccc2-c2nn[nH]n2)nc2c(OC)c(C(N)=O)ccc21`
stdout: 4390

stdin: Query (compound): `COC(=O)c1c(Br)cccc1-c1nc2c(OC)c(C(N)=O)ccc2n1CCn1c(-c2cccc(Br)c2C(=O)OC)nc2c(OC)c(C(N)=O)ccc21` ; field requested: EC50
stdout: 1630

stdin: Can you look up the measured EC50 of `COc1c(C(N)=O)ccc2c1nc(-c1ccc(F)cc1C(=O)O)n2CCn1c(-c2ccc(F)cc2C(=O)O)nc2c(OC)c(C(N)=O)ccc21` for me?
stdout: 10500

stdin: Name the reported EC50 value associated with the compound COc1c(C(N)=O)ccc2c1nc(-c1c(Cl)cccc1-c1nn[nH]n1)n2CCn1c(-c2c(Cl)cccc2-c2nn[nH]n2)nc2c(OC)c(C(N)=O)ccc21 (single isomer, unassigned)
stdout: 2470

stdin: Suppose we examine the compound `COc1c(C(N)=O)ccc2c1nc(-c1cc(F)c(F)cc1C(=O)O)n2CCn1c(-c2cc(F)c(F)cc2C(=O)O)nc2c(OC)c(C(N)=O)ccc21` ; what EC50 value has been reported?
stdout: 2460

stdin: What value of EC50 has been reported for the following compound? `COc1c(C(N)=O)ccc2c1nc(-c1c(C(=O)O)ccc(Cl)c1F)n2CCn1c(-c2c(C(=O)O)ccc(Cl)c2F)nc2c(OC)c(C(N)=O)ccc21`
stdout: 2550

stdin: Entry under review: `COc1c(C(N)=O)ccc2c1nc(-c1c(F)cc(F)cc1-c1nn[nH]n1)n2CCn1c(-c2c(F)cc(F)cc2-c2nn[nH]n2)nc2c(OC)c(C(N)=O)ccc21` . Reported EC50?
stdout: 440

stdin: State the recorded EC50 for this entry: `COc1c(C(N)=O)ccc2c1nc(-c1ccc(Cl)cc1-c1n[nH]c(=O)o1)n2CCn1c(-c2ccc(Cl)cc2-c2n[nH]c(=O)o2)nc2c(OC)c(C(N)=O)ccc21`
stdout: 360

stdin: Recorded EC50 of `COc1c(C(N)=O)ccc2c1nc(-c1cc(Cl)ccc1C(=O)O)n2CCn1c(-c2cc(Cl)ccc2C(=O)O)nc2c(OC)c(C(N)=O)ccc21` , please.
stdout: 1430

stdin: Could you tell me which EC50 is on file for `COc1c(C(N)=O)ccc2c1nc(-c1c(F)cc(Cl)cc1-c1nn[nH]n1)n2CCn1c(-c2c(F)cc(Cl)cc2-c2nn[nH]n2)nc2c(OC)c(C(N)=O)ccc21` ?
stdout: 195
